SYSTEM_NAME: BACE (Homo sapiens (Human), UniProt P56817)
Sequence (P56817 46-501, species assumed): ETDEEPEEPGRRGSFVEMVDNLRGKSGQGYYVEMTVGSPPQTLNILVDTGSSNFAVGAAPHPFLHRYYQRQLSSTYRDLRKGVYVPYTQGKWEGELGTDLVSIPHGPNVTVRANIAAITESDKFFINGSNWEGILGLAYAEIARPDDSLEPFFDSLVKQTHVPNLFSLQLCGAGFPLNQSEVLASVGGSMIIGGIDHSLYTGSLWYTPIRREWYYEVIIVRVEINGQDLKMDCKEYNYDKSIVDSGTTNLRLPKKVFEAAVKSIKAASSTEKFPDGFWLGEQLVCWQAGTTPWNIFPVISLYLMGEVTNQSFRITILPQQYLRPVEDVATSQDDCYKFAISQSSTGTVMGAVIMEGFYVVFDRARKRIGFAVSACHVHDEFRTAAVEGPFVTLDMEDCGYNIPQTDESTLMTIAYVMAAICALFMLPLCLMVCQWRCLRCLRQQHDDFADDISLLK
ASSAY_OVERVIEW: In vitro BACE cell-based assay (Aβ40 in conditioned medium, sandwich ELISA)
MEASURE: IC50 (µM)
One number for each entry, in µM.

Here is how some molecules turned out for IC50.
N#Cc1cnc2c(c1)CC[C@@H]2Nc1ccc(F)c([C@@]2(C(F)F)N=C(N)O[C@@H]3C[C@@H]32)c1 (single isomer, unassigned) = 0.318
COC[C@]1(c2cc(NC(=O)c3ccc(Cl)cn3)ccc2F)N=C(N)O[C@@H]2C[C@@H]21 = 0.157
CS(=O)(=O)c1c(F)cc(NC(=O)c2ccc(Cl)cn2)cc1[C@@]1(CF)N=C(N)O[C@@H]2C[C@@H]21 (racemic) = 0.254

For each of the items listed, what is its IC50?
1. COc1cnc(C(=O)Nc2ccc(Cl)c([C@@]3(CF)N=C(N)O[C@@H]4C[C@@H]43)c2)cn1
2. NC1=N[C@](CF)(c2cc(NC(=O)c3ncc(Cl)cc3F)ccc2Cl)[C@H]2C[C@H]2O1
3. COCC(=O)Nc1ccc(F)c([C@@]2(C(F)F)N=C(N)O[C@@H]3C[C@@H]32)c1

// result
[0.0274, 0.0134, 0.712]

Hello, the source for this data is patent US9085576B2, in case you need it.
